Data origin: the supplement of paper PMC11451515

System: SEM cells
Assay: cell viability relative to DMSO control; higher = less cytotoxic
Conditions: RPMI 5 mM glucose + 10% FBS; 48 h; 0.0211 µM
measure: cell viability
Phrase the answer as number then unit, nothing more needed.

Input line: Could you share which cell viability value was measured for `CO[C@H]1C[C@@H]2CC[C@@H](C)[C@@](O)(O2)C(=O)C(=O)N2CCCC[C@H]2C(=O)O[C@H]([C@H](C)C[C@@H]2CC[C@@H](OP(C)(C)=O)[C@H](OC)C2)CC(=O)[C@H](C)/C=C(\C)[C@@H](O)[C@@H](OC)C(=O)[C@H](C)C[C@H](C)/C=C/C=C/C=C/1C` ?
Output line: 76.7%

Input line: Could you share which cell viability value was measured for COCCOC(=O)C/1=C(C)/NC/2=C(C1C3=CC=CC(=C3)O)/C(=O)CC(C2)C4=C(OC)C=CC=C4 (centres undefined) ?
Output line: 126%

Input line: Could you share which cell viability value was measured for `COC[C@H](NC(=O)c1cnc(C)s1)C(=O)N[C@@H](COC)C(=O)N[C@@H](Cc1ccccc1)C(=O)[C@@]1(C)CO1` ?
Output line: 120%

Input line: Could you share which cell viability value was measured for `CN(C)CCOC(c1ccccc1)c1ccccc1` ?
Output line: 105%

Input line: Could you share which cell viability value was measured for `NC(=O)N1c2ccccc2CC(=O)c2ccccc21` ?
Output line: 132%

Input line: Could you share which cell viability value was measured for `C#CCN(C)[C@H](C)Cc1ccccc1` ?
Output line: 107%

Input line: Could you share which cell viability value was measured for CN(N=O)C(=O)N[C@H]1C(O)OC(CO)[C@@H](O)[C@@H]1O (some centres undefined) ?
Output line: 87.8%

Input line: Could you share which cell viability value was measured for `C[C@H](NC(=O)C(=O)Nc1ccccc1C(C)(C)C)C(=O)N[C@@H](CC(=O)O)C(=O)COc1c(F)c(F)cc(F)c1F` ?
Output line: 78%

Input line: Could you share which cell viability value was measured for `CC(C)(C)OC(=O)CN(Cc1ccc(Cl)cc1)Cc1ccc([N+](=O)[O-])s1` ?
Output line: 94.4%

###

Tested on: P12-Ichikawa
Assay: cell viability relative to DMSO control; higher = less cytotoxic
Conditions: RPMI 5 mM glucose + 10% FBS; 48 h; 0.569 µM
measure: cell viability

Input line: Provide value of cell viability for this record tested with P12-Ichikawa: CCCCN(CCCC)CCC(O)c1cc2c(Cl)cc(Cl)cc2c2cc(C(F)(F)F)ccc12 (centres undefined)
Output line: 141%

Input line: Provide value of cell viability for this record tested with P12-Ichikawa: `Fc1cc(-c2cccc3ncc(-c4cnn(C5CCNCC5)c4)nc23)cc(F)c1CN1CCOCC1`
Output line: 118%

Input line: Provide value of cell viability for this record tested with P12-Ichikawa: `CC#C[C@]1(O)CC[C@H]2[C@@H]/3CCC/4=C/C(=O)CCC4=C3[C@H](C[C@]12C)C5=CC=C(C=C5)N(C)C`
Output line: 106%

Input line: Provide value of cell viability for this record tested with P12-Ichikawa: `C#Cc1cccc(Nc2ncnc3cc(OCCOC)c(OCCO)cc23)c1`
Output line: 111%

###

I'd appreciate it if you could supply AUC of viability dose-response curve values for the items below.
Tested on: P12-Ichikawa
Experiment: AUC of viability dose-response curve (% viability x log10 dose units); higher = less sensitive
Details: HPLM + 10% dialyzed FBS; 48 h
// return just the number, without any unit appended

Input line: Could you share which AUC of viability dose-response curve value was measured for C[C@H]1O[C@H](O[C@H]2[C@H](O)[C@@H](O)[C@H](O[C@@H]2CO)O[C@H]3[C@H](O)[C@@H](O)C(O)O[C@@H]3CO)[C@H](O)[C@@H](O)[C@@H]1N[C@H]4\C=C(CO)/[C@@H](O)[C@H](O)[C@H]4O (stereo not given in full) ?
Output line: 321

Input line: Could you share which AUC of viability dose-response curve value was measured for `Cl.c1cnc2cc3c(cc2n1)C1CNCC3C1` ?
Output line: 474

Input line: Could you share which AUC of viability dose-response curve value was measured for `Fc1ccc(C(c2ccc(F)cc2)N2CCN(C/C=C/c3ccccc3)CC2)cc1` ?
Output line: 456

Input line: Could you share which AUC of viability dose-response curve value was measured for `COc1nc(-c2ccc3c(c2)OCO3)n(-c2ccc(NC(=O)CSc3ccccc3)cc2)n1` ?
Output line: 470

Input line: Could you share which AUC of viability dose-response curve value was measured for `O=c1cc(O)c(Cl)c[nH]1` ?
Output line: 391

###

I'd appreciate it if you could supply cell viability values for the items below.
Test system: P12-Ichikawa
Experiment: cell viability relative to DMSO control; higher = less cytotoxic
Conditions: HPLM + 10% dialyzed FBS; 48 h; 0.0211 µM
Write the answer as a number in %, unit excluded.

Input line: Could you share which cell viability value was measured for `CNC(=O)c1cccc(-c2ccc3c(N4CCOC[C@@H]4C)nc(N4CCOC[C@@H]4C)nc3n2)c1` ?
Output line: 92.4

Input line: Could you share which cell viability value was measured for `CC(C)(C)/[N+]([O-])=C/c1ccc([S+](=O)([O-])[O][Na])cc1[S+](=O)([O-])[O][Na]` ?
Output line: 122

Input line: Could you share which cell viability value was measured for CC1SC/2=C(C(O)=O)/C(=O)C3=CC(=C(C=C3N12)N4CCN(CC4)C\C5=C(C)\OC(=O)O5)F (centres undefined) ?
Output line: 124

Input line: Could you share which cell viability value was measured for `ClC1=CC=C(CCCOC/2=N/NC(=O)C(=C2NCC3=CN=CC=C3)/Br)C=C1` ?
Output line: 117

Input line: Could you share which cell viability value was measured for `OC[C@H]1O[C@@H](Oc2ccc(O)cc2)[C@H](O)[C@@H](O)[C@@H]1O` ?
Output line: 95.7

Input line: Could you share which cell viability value was measured for CCOC(=O)C/1=C(C)/NC(=S)NC1C2=CC=CC(=C2)O (centres undefined) ?
Output line: 118

Input line: Could you share which cell viability value was measured for `COc1cc2ncnc(-n3nc(-c4ccccn4)nc3N)c2cc1OC` ?
Output line: 99.7

Input line: Could you share which cell viability value was measured for `CCNC(=O)C[C@@H]1\N=C(C2=CC=C(Cl)C=C2)/C3=C(C=CC(=C3)OC)[N]4C(=NN=C14)C` ?
Output line: 114

Input line: Could you share which cell viability value was measured for `C#CCN(C)[C@H](C)Cc1ccccc1` ?
Output line: 89.8

###

System: P12-Ichikawa
Assay: cell viability relative to DMSO control; higher = less cytotoxic
Conditions: RPMI 5 mM glucose + 10% FBS; 48 h; 1.71 µM
I'd appreciate it if you could supply cell viability values for the items below.
Write the answer as a number in %, unit excluded.

Input line: Could you share which cell viability value was measured for `C[C@H]1CN(C[C@@H](C)O1)CC(=O)NC2=CC=C3SC4=C(CC3=C2)C=CC=C4\C5=C\C(=O)\C=C(/O5)N6CCOCC6` ?
Output line: 124

Input line: Could you share which cell viability value was measured for `O=C1Nc2ccccc2/C1=C1\Nc2ccccc2C1=O` ?
Output line: 104

Input line: Could you share which cell viability value was measured for `O=C(NC1CCNCC1)c1n[nH]cc1NC(=O)c1c(Cl)cccc1Cl` ?
Output line: 50.9

Input line: Could you share which cell viability value was measured for `O=C1c2c(O)cccc2[C@H]([C@@H]2O[C@H](CO)[C@@H](O)[C@H](O)[C@H]2O)c2cc(CO)cc(O)c21` ?
Output line: 106

Input line: Could you share which cell viability value was measured for `Clc1ccc(C2(c3ccc(-c4cn[nH]c4)cc3)CCNCC2)cc1` ?
Output line: 75.4

###

I'd appreciate it if you could supply cell viability values for the items below.
System: SEM cells
Assay: cell viability relative to DMSO control; higher = less cytotoxic
Conditions: RPMI 5 mM glucose + 10% FBS; 48 h; 0.000781 µM
Write the answer as a number in %, unit excluded.

Input line: Provide value of cell viability for this record tested with SEM cells: `NC(=O)c1ccc(-c2nc(-c3ccc4c(c3)OCCO4)c(-c3ccccn3)[nH]2)cc1`
Output line: 100

Input line: Provide value of cell viability for this record tested with SEM cells: `CN[C@H](CC(C)C)C(=O)N[C@H]1C(=O)N[C@@H](CC(N)=O)C(=O)N[C@H]2C(=O)N[C@H]3C(=O)N[C@H](C(=O)N[C@H](C(=O)O)c4cc(O)cc(O)c4-c4cc3ccc4O)[C@H](O)c3ccc(c(Cl)c3)Oc3cc2cc(c3O[C@@H]2O[C@H](CO)[C@@H](O)[C@H](O)[C@H]2O[C@H]2C[C@](C)(N)[C@H](O)[C@H](C)O2)Oc2ccc(cc2Cl)[C@H]1O`
Output line: 127

Input line: Provide value of cell viability for this record tested with SEM cells: `COc1cc2c(Nc3ccc(NC(=O)c4ccccc4)cc3)ncnc2cc1OCCCN1CCOCC1`
Output line: 122

Input line: Provide value of cell viability for this record tested with SEM cells: `C[C@H]1CN(C[C@@H](C)O1)CC(=O)NC2=CC=C3SC4=C(CC3=C2)C=CC=C4\C5=C\C(=O)\C=C(/O5)N6CCOCC6`
Output line: 76.2

Input line: Provide value of cell viability for this record tested with SEM cells: `Fc1cc(-c2cccc3ncc(-c4cnn(C5CCNCC5)c4)nc23)cc(F)c1CN1CCOCC1`
Output line: 110

Input line: Provide value of cell viability for this record tested with SEM cells: `CN1C(=O)\C(=C/C(=C1/NC2=C(F)C=C(I)C=C2)C(=O)NOCCO)C`
Output line: 97.1
